assay: Circular dichroism spectroscopy analysis (CD spectra, variable temperature measurement, refolding); format: physicochemical; conditions: Table 7; MGSSHHHHHHGSS-[Y#####]-A

{"substance": "Y02330: C4 binding Y variant from Ylib002Naive.I, SEQ ID NO:37 (LAEAKEAAIAELDSKGVGAELIKKIQHAESVEGVQFWKQEILAYLPA; Engineered C4 binding Y variant)", "Tm / °C": 49}
{"substance": "Y02358: C4 binding Y variant from Ylib002Naive.I, SEQ ID NO:39 (LAEAKEAAIAELDSKGVGADDIKLIQDAPSVEGVQEIKQFILAQLPA; Engineered C4 binding Y variant)", "Tm / °C": 51}
{"substance": "Y00356a: insulin binding Y variant from Ylib002Naive.I, SEQ ID NO:141 (LAEAKEAAIAELDSKGVGAKYIKMIQHAHYVEVVQWLKQAILAHLPA; Engineered insulin binding Y variant)", "Tm / °C": 56}

* * *

test: Circular dichroism spectroscopy analysis (CD spectra, variable temperature measurement, refolding); type: physicochemical; conditions: Table 7; MGSSHHHHHHGSS-[Y#####]-A

{"substance": "Y00792: C4 binding Y variant from Ylib002Naive.I, SEQ ID NO:32 (LAEAKEAAIAELDSKGVGADLIKKIQQASSVEGVQFWKQEILAQLPA; Engineered C4 binding Y variant)", "Tm, °C": 58}
{"substance": "Y02337: C4 binding Y variant from Ylib002Naive.I, SEQ ID NO:38 (LAEAKEAAIAELDSKGVGAAEIKWIQHASTVEGVQGRKQQILAELPA; Engineered C4 binding Y variant)", "Tm, °C": 31}
{"substance": "Y00301: insulin binding Y variant from Ylib002Naive.I, SEQ ID NO:133 (LAEAKEAAIAELDSKGVGARQIKWIQQAKSVEVVQWLKQAILADLPA; Engineered insulin binding Y variant)", "Tm, °C": 62}
{"substance": "Y02309: C4 binding Y variant from Ylib002Naive.I, SEQ ID NO:35 (LAEAKEAAIAELDSKGVGADLIKKIQKAESVEGVQFWKQEILATLPA; Engineered C4 binding Y variant)", "Tm, °C": 56}
{"substance": "Y02303: C4 binding Y variant from Ylib002Naive.I, SEQ ID NO:34 (LAEAKEAAIAELDSKGVGAEEIKWIQNAWSVEGVQIMKQQILAELPA; Engineered C4 binding Y variant)", "Tm, °C": 43}
{"substance": "Y00345: insulin binding Y variant from Ylib002Naive.I, SEQ ID NO:138 (LAEAKEAAIAELDSKGVGAYQIKFIQVAKTVEAVQAIKQAILADLPA; Engineered insulin binding Y variant)", "Tm, °C": 53}
{"substance": "Y00330: insulin binding Y variant from Ylib002Naive.I, SEQ ID NO:136 (LAEAKEAAIAELDSKGVGAKYIKMIQMAKHVETVQYMKQAILASLPA; Engineered insulin binding Y variant)", "Tm, °C": 56}
{"substance": "Y00299: insulin binding Y variant from Ylib002Naive.I, SEQ ID NO:132 (LAEAKEAAIAELDSKGVGAYQIKFIQVAKTVEQVQILKQAILADLPA; Engineered insulin binding Y variant)", "Tm, °C": 56}
{"substance": "Y00358: insulin binding Y variant from Ylib002Naive.I, SEQ ID NO:142 (LAEAKEAAIAELDSKGVGAAKIKWIQDAKSVETVQFLKQAILAELPA; Engineered insulin binding Y variant)", "Tm, °C": 61}

* * *

target: C4; assay: Kinetic analysis using surface plasmon resonance (Biacore T200), immobilized C4; format: binding; details: Table 7; MGSSHHHHHHGSS-[Y#####]-A
So basically: is Kd under 60 nM? Then yes. Not under? Then no.

{"substance": "Y02309: C4 binding Y variant from Ylib002Naive.I, SEQ ID NO:35 (LAEAKEAAIAELDSKGVGADLIKKIQKAESVEGVQFWKQEILATLPA; Engineered C4 binding Y variant)", "cat": "no"}
{"substance": "Y02358: C4 binding Y variant from Ylib002Naive.I, SEQ ID NO:39 (LAEAKEAAIAELDSKGVGADDIKLIQDAPSVEGVQEIKQFILAQLPA; Engineered C4 binding Y variant)", "cat": "yes"}
{"substance": "Y00792: C4 binding Y variant from Ylib002Naive.I, SEQ ID NO:32 (LAEAKEAAIAELDSKGVGADLIKKIQQASSVEGVQFWKQEILAQLPA; Engineered C4 binding Y variant)", "cat": "no"}
{"substance": "Y02337: C4 binding Y variant from Ylib002Naive.I, SEQ ID NO:38 (LAEAKEAAIAELDSKGVGAAEIKWIQHASTVEGVQGRKQQILAELPA; Engineered C4 binding Y variant)", "cat": "no"}
{"substance": "Y02303: C4 binding Y variant from Ylib002Naive.I, SEQ ID NO:34 (LAEAKEAAIAELDSKGVGAEEIKWIQNAWSVEGVQIMKQQILAELPA; Engineered C4 binding Y variant)", "cat": "no"}
{"substance": "Y02330: C4 binding Y variant from Ylib002Naive.I, SEQ ID NO:37 (LAEAKEAAIAELDSKGVGAELIKKIQHAESVEGVQFWKQEILAYLPA; Engineered C4 binding Y variant)", "cat": "yes"}

* * *

We begin with a simple list: items and their reported log10(ka).
target: insulin (Homo sapiens); construct: purchased Roche 1376497; assay: Kinetic analysis using surface plasmon resonance (Biacore T200), immobilized insulin; type: binding; details: Table 7; MGSSHHHHHHGSS-[Y#####]-A
Sequence (P01308 25-54 limits assumed): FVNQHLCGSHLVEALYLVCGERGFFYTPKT
Sequence (P01308 90-110 limits assumed): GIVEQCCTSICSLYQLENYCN
measured.parameter: log10(ka) (log10 of the value in M⁻¹ s⁻¹)

{"substance": "Y00310: insulin binding Y variant from Ylib002Naive.I, SEQ ID NO:135 (LAEAKEAAIAELDSKGVGAYQIKFIQIAHTVEEVQLMKQAILADLPA; Engineered insulin binding Y variant)", "tested.on": "insulin (Homo sapiens)", "log10(ka)": 5.23}
{"substance": "Y00345: insulin binding Y variant from Ylib002Naive.I, SEQ ID NO:138 (LAEAKEAAIAELDSKGVGAYQIKFIQVAKTVEAVQAIKQAILADLPA; Engineered insulin binding Y variant)", "tested.on": "insulin (Homo sapiens)", "log10(ka)": 5.46}
{"substance": "Y00361: insulin binding Y variant from Ylib002Naive.I, SEQ ID NO:144 (LAEAKEAAIAELDSKGVGAKFIKMIQSAKLVETVQLLKQAILADLPA; Engineered insulin binding Y variant)", "tested.on": "insulin (Homo sapiens)", "log10(ka)": 4.08}
{"substance": "Y00356a: insulin binding Y variant from Ylib002Naive.I, SEQ ID NO:141 (LAEAKEAAIAELDSKGVGAKYIKMIQHAHYVEVVQWLKQAILAHLPA; Engineered insulin binding Y variant)", "tested.on": "insulin (Homo sapiens)", "log10(ka)": 7.53}
{"substance": "Y00358: insulin binding Y variant from Ylib002Naive.I, SEQ ID NO:142 (LAEAKEAAIAELDSKGVGAAKIKWIQDAKSVETVQFLKQAILAELPA; Engineered insulin binding Y variant)", "tested.on": "insulin (Homo sapiens)", "log10(ka)": 5.34}
{"substance": "Y00330: insulin binding Y variant from Ylib002Naive.I, SEQ ID NO:136 (LAEAKEAAIAELDSKGVGAKYIKMIQMAKHVETVQYMKQAILASLPA; Engineered insulin binding Y variant)", "tested.on": "insulin (Homo sapiens)", "log10(ka)": 4.48}
{"substance": "Y00301: insulin binding Y variant from Ylib002Naive.I, SEQ ID NO:133 (LAEAKEAAIAELDSKGVGARQIKWIQQAKSVEVVQWLKQAILADLPA; Engineered insulin binding Y variant)", "tested.on": "insulin (Homo sapiens)", "log10(ka)": 7.46}

* * *

target: IL-6 (Homo sapiens); construct: purchased R&D Systems 206-IL-200/CF; assay: Kinetic analysis using surface plasmon resonance (Biacore T200), immobilized IL-6; assay type: binding; details: Table 7; MGSSHHHHHHGSS-[Y#####]-A
Sequence (P05231 30-212): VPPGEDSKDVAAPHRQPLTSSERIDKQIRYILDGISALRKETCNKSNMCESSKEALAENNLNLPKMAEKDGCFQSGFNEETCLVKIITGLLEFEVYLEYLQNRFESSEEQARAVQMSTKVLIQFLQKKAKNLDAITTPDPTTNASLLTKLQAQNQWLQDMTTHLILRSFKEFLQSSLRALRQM
We begin with a simple list: items and their reported kd.

{"substance": "Y02465: IL-6 binding Y variant from Ylib002Naive.I, SEQ ID NO:78 (LAEAKEAAIAELDSKGVGANHIKAIQHAQFVEIVQLLKQAILAVLPA; Engineered IL-6 binding Y variant)", "unit.of.measure": "s⁻¹", "kd": 0.0021}
{"substance": "Y02444: IL-6 binding Y variant from Ylib002Naive.I, SEQ ID NO:75 (LAEAKEAAIAELDSKGVGAVEIKQIQEALLVEIVQLLKQAILAVLPA; Engineered IL-6 binding Y variant)", "unit.of.measure": "s⁻¹", "kd": 0.0055}
{"substance": "Y02374: IL-6 binding Y variant from Ylib002Naive.I, SEQ ID NO:72 (LAEAKEAAIAELDSKGVGAAEIKRIQAAELVEIVQLLKQAILAVLPA; Engineered IL-6 binding Y variant)", "unit.of.measure": "s⁻¹", "kd": 0.0017}
{"substance": "Y02415: IL-6 binding Y variant from Ylib002Naive.I, SEQ ID NO:74 (LAEAKEAAIAELDSKGVGAGDIKDIQDALLVEIVQLLKQAILAVLPA; Engineered IL-6 binding Y variant)", "unit.of.measure": "s⁻¹", "kd": 0.0015}
{"substance": "Y02447: IL-6 binding Y variant from Ylib002Naive.I, SEQ ID NO:76 (LAEAKEAAIAELDSKGVGAHGIKEIQDAILVEIVQLLKQAILAALPA; Engineered IL-6 binding Y variant)", "unit.of.measure": "s⁻¹", "kd": 0.0017}
{"substance": "Y02495: IL-6 binding Y variant from Ylib002Naive.I, SEQ ID NO:79 (LAEAKEAAIAELDSKGVGAEEIKEIQGAMLVEIVQLLKQAILAVLPA; Engineered IL-6 binding Y variant)", "unit.of.measure": "s⁻¹", "kd": 0.0017}

Attribution: patent US11505576B2
